- Experimental Details: in vivo
- Settings: female, Sprague-Dawley, rat, iv, 15 mg/kg, CL (clearance), pregnant rats, maternal blood, nirmatrelvir 15 mg/kg i.v. alone
Reported Endpoint: clearance (mL/min/kg)
Use mL/min/kg as the unit, but write only the number.

Lookup result for CC(C)(C)[C@H](NC(=O)C(F)(F)F)C(=O)N1C[C@H]2[C@@H]([C@H]1C(=O)N[C@H](C#N)C[C@@H]1CCNC1=O)C2(C)C ; measured clearance: 5

====

- Experimental Details: in vivo
- Settings: female, Sprague-Dawley, rat, iv, 15 mg/kg, Cmax, nonpregnant female rats, brain, nirmatrelvir 15 mg/kg i.v. alone
Reported Endpoint: Cmax (ng/mL)
Provide the reading as a plain figure in ng/mL.

Form field Cmax, entry CC(C)(C)[C@H](NC(=O)C(F)(F)F)C(=O)N1C[C@H]2[C@@H]([C@H]1C(=O)N[C@H](C#N)C[C@@H]1CCNC1=O)C2(C)C : 2420
